# Tested on: HMM-mfMSR1 (monkey MSR1 extracellular domain)
# Sequence (as listed by the source): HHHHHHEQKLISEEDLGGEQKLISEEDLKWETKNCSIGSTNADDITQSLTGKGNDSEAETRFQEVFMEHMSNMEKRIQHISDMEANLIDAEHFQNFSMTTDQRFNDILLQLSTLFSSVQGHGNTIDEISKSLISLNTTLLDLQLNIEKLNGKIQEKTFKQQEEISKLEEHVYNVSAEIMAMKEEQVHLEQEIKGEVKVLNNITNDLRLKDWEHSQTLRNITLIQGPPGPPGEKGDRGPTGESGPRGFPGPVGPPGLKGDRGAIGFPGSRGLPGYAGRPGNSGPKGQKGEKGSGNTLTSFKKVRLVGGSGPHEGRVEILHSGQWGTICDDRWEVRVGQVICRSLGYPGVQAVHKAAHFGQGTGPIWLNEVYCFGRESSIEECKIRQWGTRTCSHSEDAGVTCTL
# test-details: Biacore surface plasmon resonance binding kinetics of anti-MSR1 mAbs, antibody-capture format
# condition-summary: 25° C.; analyte HMM-mfMSR1; antibody-capture format; NB = no binding observed
As shown below, each of these molecules has a reported ka value.
Answer with the figure and its unit, nothing else.

Some entries whose results are on file:
molecule	ka
H1H27734P-N297Q: one of "Twelve anti-MSR1 antibodies"; "made with an N297Q single point mutation in human Fcγ portion" (antibody, V domains shown) VH: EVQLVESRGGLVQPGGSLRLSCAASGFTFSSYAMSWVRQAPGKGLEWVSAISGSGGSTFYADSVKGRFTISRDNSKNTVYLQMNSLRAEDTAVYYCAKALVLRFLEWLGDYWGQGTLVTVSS VL: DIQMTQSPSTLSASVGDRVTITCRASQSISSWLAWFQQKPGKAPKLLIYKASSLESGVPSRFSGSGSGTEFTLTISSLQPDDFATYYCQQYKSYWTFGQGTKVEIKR	423000 M⁻¹ s⁻¹
H1H21227N: "anti-MSR1 antibodies ... (21227N, 21231N, 21234N) were produced with the original human Fcγ portion"; "H1H" = human IgG1 Fc (antibody, V domains shown, human IgG1 Fc, "anti-MSR1 antibodies ; (21227N, 21231N, 21234N) were produced with the original human Fcγ portion"; "H1H" = human IgG1 Fc) VH: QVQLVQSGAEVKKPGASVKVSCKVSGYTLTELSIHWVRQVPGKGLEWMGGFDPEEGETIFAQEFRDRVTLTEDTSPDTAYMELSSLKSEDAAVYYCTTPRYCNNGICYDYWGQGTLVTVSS VL: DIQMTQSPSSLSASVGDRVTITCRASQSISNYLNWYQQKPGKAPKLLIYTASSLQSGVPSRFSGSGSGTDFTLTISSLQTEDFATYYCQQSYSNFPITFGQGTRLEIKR	1.27e+06 M⁻¹ s⁻¹
H1H21231N-N297Q: modified version of "21231N (H1H21231N-N297Q) anti-MSR1 antibodies" with "a N297Q single point mutation" (antibody, V domains shown) VH: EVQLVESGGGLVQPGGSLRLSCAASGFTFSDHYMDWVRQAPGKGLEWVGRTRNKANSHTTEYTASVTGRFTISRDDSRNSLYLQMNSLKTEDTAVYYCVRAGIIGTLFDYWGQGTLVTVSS VL: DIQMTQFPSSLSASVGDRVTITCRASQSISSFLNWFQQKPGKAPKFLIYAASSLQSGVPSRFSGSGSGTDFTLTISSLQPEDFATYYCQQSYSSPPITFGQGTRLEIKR	240000 M⁻¹ s⁻¹
H1H21231N: "anti-MSR1 antibodies ... (21227N, 21231N, 21234N) were produced with the original human Fcγ portion"; "H1H" = human IgG1 Fc (antibody, V domains shown, human IgG1 Fc, "anti-MSR1 antibodies ; (21227N, 21231N, 21234N) were produced with the original human Fcγ portion"; "H1H" = human IgG1 Fc) VH: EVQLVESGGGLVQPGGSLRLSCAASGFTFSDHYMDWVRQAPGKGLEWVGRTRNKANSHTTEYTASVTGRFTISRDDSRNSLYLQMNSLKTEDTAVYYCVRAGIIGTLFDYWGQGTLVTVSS VL: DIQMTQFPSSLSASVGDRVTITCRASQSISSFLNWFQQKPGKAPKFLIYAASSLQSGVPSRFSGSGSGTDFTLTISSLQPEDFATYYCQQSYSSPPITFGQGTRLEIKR	274000 M⁻¹ s⁻¹
H1H27731P-N297Q: one of "Twelve anti-MSR1 antibodies"; "made with an N297Q single point mutation in human Fcγ portion" (antibody, V domains shown) VH: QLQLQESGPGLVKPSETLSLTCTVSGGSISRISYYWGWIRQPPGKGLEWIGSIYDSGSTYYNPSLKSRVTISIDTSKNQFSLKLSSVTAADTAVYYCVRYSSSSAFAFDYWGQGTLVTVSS VL: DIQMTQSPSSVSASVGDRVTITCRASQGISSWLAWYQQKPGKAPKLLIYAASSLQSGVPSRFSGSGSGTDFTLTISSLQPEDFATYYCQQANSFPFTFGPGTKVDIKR	98200 M⁻¹ s⁻¹

Name the reported ka value associated with the molecule H1H21227N-N297D: "The 21227N antibody was also produced as a third version with a N297D mutation" (antibody, V domains shown) VH: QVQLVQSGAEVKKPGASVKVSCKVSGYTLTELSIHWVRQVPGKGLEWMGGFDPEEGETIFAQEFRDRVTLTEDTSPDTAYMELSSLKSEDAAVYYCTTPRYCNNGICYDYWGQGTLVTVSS VL: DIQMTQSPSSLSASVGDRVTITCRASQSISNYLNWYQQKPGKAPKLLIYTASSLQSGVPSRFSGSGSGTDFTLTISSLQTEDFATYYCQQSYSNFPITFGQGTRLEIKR
1.35e+06 M⁻¹ s⁻¹

Next molecule up: H1H21227N-N297Q: "modified versions of 21227N (H1H21227N-N297Q and H1H21227N-N297D)"; anti-MSR1 antibody "with a N297Q single point mutation" (antibody, V domains shown) VH: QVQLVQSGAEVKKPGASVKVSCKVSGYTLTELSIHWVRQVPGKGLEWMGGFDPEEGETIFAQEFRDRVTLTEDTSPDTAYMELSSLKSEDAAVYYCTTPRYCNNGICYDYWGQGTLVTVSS VL: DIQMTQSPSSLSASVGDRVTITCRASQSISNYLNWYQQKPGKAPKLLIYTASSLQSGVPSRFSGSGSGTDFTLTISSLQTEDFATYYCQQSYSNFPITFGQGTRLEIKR
1.36e+06 M⁻¹ s⁻¹
